The measurements presented in this section are drawn from paper PMC9646721.

MEASURED_TARGET: MLP15 (Papaver somniferum, UniProt P19825)
EXPERIMENT_NOTES: Isothermal titration calorimetry
Type: binding
Design: made in house; host or cells: E. coli ArcticExpress (DE3)
DETAILS: ITC, CBS pH 5.5, 25 °C, single-site model
ENDPOINT: pKd
Scale note: pKd = -log10(concentration in M).

Query: API: value(readout= pKd, system= MLP15 (Papaver somniferum, UniProt P19825), query= O=S(=O)(O)c1cccc2cccc(Nc3ccccc3)c12 )
Reply: 4.26

###

Items are presented alongside their recorded pIC50.
MEASURED_TARGET: PR10-4
EXPERIMENT_NOTES: ANS displacement assay
DETAILS: 10 µM protein and 10 µM ANS, CBS pH 5.5
Scale note: pIC50 = -log10(concentration in M).

{"columns": ["ENTRY_SMILES", "pIC50"],
 "data": [
  ["COC1=CC=C2[C@H]3Cc4ccc(OC)c5c4[C@@]2(CCN3C)[C@H]1O5", 2.59]
]}

Query: Quick check: pIC50 of COc1ccc(Cc2nccc3cc(OC)c(OC)cc23)cc1OC ?
Reply: 4.38

###

Items are presented alongside their recorded pIC50.
MEASURED_TARGET: MLP15 (Papaver somniferum, UniProt P19825)
Sequence (P19825 1-159): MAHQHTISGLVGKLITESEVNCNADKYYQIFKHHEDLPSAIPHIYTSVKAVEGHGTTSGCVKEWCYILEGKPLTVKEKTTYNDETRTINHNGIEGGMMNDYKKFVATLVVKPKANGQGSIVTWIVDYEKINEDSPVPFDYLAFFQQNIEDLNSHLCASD
Scale note: pIC50 = -log10(concentration in M).

Guide cases for pIC50, answers given:
{"columns": ["MOLECULE", "MEASURED_TARGET", "pIC50"],
 "data": [
  ["COc1ccc2c3c1O[C@H]1[C@@H](O)C=C[C@H]4[C@@H](C2)N(C)CC[C@@]341 [Codeine, codeine]", "MLP15 (Papaver somniferum, UniProt P19825)", 2.98],
  ["COC1=CC=C2[C@H]3Cc4ccc(OC)c5c4[C@@]2(CCN3C)[C@H]1O5 [Thebaine, thebaine]", "MLP15 (Papaver somniferum, UniProt P19825)", 3.16]
]}

# next molecule below
Query: API: value(readout= pIC50, system= MLP15 (Papaver somniferum, UniProt P19825), query= COc1ccc(Cc2nccc3cc(OC)c(OC)cc23)cc1OC [Papaverine, papaverine] )
Reply: 3.52

###

Items are presented alongside their recorded Kd.
MEASURED_TARGET: MLP15 (Papaver somniferum)
EXPERIMENT_NOTES: ANS displacement assay

Guide cases for Kd, answers given:
{"columns": ["ENTRY_SMILES", "Kd"],
 "data": [
  ["COC1=CC=C2[C@H]3Cc4ccc(OC)c5c4[C@@]2(CCN3C)[C@H]1O5", "612 µM"],
  ["COc1ccc(Cc2nccc3cc(OC)c(OC)cc23)cc1OC", "265 µM"]
]}

Query: Quick check: Kd of COc1ccc2c(c1OC)C(=O)O[C@@H]2[C@H]1c2c(cc3c(c2OC)OCO3)CCN1C ?
Reply: 37.8 µM

Query: Let us now turn to COc1ccc2c3c1O[C@H]1[C@@H](O)C=C[C@H]4[C@@H](C2)N(C)CC[C@@]341
Reply: 931 µM

###

Tested on: MLP2
EXPERIMENT_NOTES: ANS displacement assay
Assay type: binding, Papaver somniferum
DETAILS: 10 µM protein and 10 µM ANS, CBS pH 5.5
Items are presented alongside their recorded Log10IC50.
No unit in the answer, only the number.

Guide cases for Log10IC50, answers given:
{"columns": ["COMPOUND", "RECORDED_RESULT"],
 "data": [
  ["COc1ccc2c3c1O[C@H]1[C@@H](O)C=C[C@H]4[C@@H](C2)N(C)CC[C@@]341 [Codeine, codeine]", 2.31],
  ["COC1=CC=C2[C@H]3Cc4ccc(OC)c5c4[C@@]2(CCN3C)[C@H]1O5 [Thebaine, thebaine]", 2.60]
]}

# next compound below
Query: Quick check: Log10IC50 of COc1ccc(Cc2nccc3cc(OC)c(OC)cc23)cc1OC [Papaverine, papaverine] ?
Reply: 1.79

###

MEASURED_TARGET: PR10-12
EXPERIMENT_NOTES: Isothermal titration calorimetry
Type: binding, Papaver somniferum
DETAILS: ITC, PBS pH 7.4, 25 °C, single-site model, listed as codeine
ENDPOINT: Kd (µM)
Report the figure in µM without appending any unit label.

Query: Quick check: Kd of COc1ccc2c3c1O[C@H]1[C@@H](O)C=C[C@H]4[C@@H](C2)N(C)CC[C@@]341 ?
Reply: 140

###

MEASURED_TARGET: NISO (Papaver somniferum, UniProt P0DYP9)
Sequence (P0DYP9 entry or part of it): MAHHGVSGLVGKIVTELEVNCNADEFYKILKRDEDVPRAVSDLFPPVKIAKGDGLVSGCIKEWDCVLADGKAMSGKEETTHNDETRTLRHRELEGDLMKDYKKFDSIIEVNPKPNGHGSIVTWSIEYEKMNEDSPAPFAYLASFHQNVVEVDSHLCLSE
EXPERIMENT_NOTES: ANS displacement assay
Items are presented alongside their recorded pKd.
Scale note: pKd = -log10(concentration in M).

{"columns": ["ENTRY_SMILES", "MEASURED_TARGET", "ENDPOINT", "RECORDED_RESULT"],
 "data": [
  ["COc1ccc(Cc2nccc3cc(OC)c(OC)cc23)cc1OC", "NISO (Papaver somniferum, UniProt P0DYP9)", "pKd", 4.09]
]}

Query: Quick check: pKd of COC1=CC=C2[C@H]3Cc4ccc(OC)c5c4[C@@]2(CCN3C)[C@H]1O5 ?
Reply: 3.77

Query: Let us now turn to COc1ccc2c3c1O[C@H]1[C@@H](O)C=C[C@H]4[C@@H](C2)N(C)CC[C@@]341
Reply: 4.62

Query: Let us now turn to COc1ccc2c(c1OC)C(=O)O[C@@H]2[C@H]1c2c(cc3c(c2OC)OCO3)CCN1C
Reply: 4.25

###

MEASURED_TARGET: MLP2
EXPERIMENT_NOTES: ANS displacement assay
Type: binding, Papaver somniferum
DETAILS: from average IC50 and PR10-ANS Kd, competitive inhibition assumed, read-out: Estimated Kd
ENDPOINT: Kd (µM)
Report the figure in µM without appending any unit label.

Guide cases for Kd, answers given:
{"columns": ["ENTRY_SMILES", "ENDPOINT", "RECORDED_RESULT"],
 "data": [
  ["COc1ccc2c3c1O[C@H]1[C@@H](O)C=C[C@H]4[C@@H](C2)N(C)CC[C@@]341", "Kd", 151],
  ["COc1ccc(Cc2nccc3cc(OC)c(OC)cc23)cc1OC", "Kd", 45.5]
]}

Query: API: value(readout= Kd, system= MLP2, query= COC1=CC=C2[C@H]3Cc4ccc(OC)c5c4[C@@]2(CCN3C)[C@H]1O5 )
Reply: 292

###

Items are presented alongside their recorded Log10IC50.
MEASURED_TARGET: MLP15 (Papaver somniferum)
EXPERIMENT_NOTES: ANS displacement assay
DETAILS: MLP15; 10 µM protein and 10 µM ANS; CBS pH 5.5
No unit in the answer, only the number.

{"columns": ["ENTRY_SMILES", "Log10IC50"],
 "data": [
  ["COc1ccc(Cc2nccc3cc(OC)c(OC)cc23)cc1OC", 2.48],
  ["COc1ccc2c3c1O[C@H]1[C@@H](O)C=C[C@H]4[C@@H](C2)N(C)CC[C@@]341", 3.02]
]}

Query: API: value(readout= Log10IC50, system= MLP15 (Papaver somniferum), query= COC1=CC=C2[C@H]3Cc4ccc(OC)c5c4[C@@]2(CCN3C)[C@H]1O5 )
Reply: 2.84

Query: Let us now turn to COc1ccc2c(c1OC)C(=O)O[C@@H]2[C@H]1c2c(cc3c(c2OC)OCO3)CCN1C
Reply: 1.63

###

MEASURED_TARGET: NISO (Papaver somniferum)
EXPERIMENT_NOTES: ANS displacement assay
DETAILS: NISO; 10 µM protein and 10 µM ANS; CBS pH 5.5
Items are presented alongside their recorded Log10IC50.

Query: API: value(readout= Log10IC50, system= NISO (Papaver somniferum), query= COc1ccc2c(c1OC)C(=O)O[C@@H]2[C@H]1c2c(cc3c(c2OC)OCO3)CCN1C )
Reply: 1.82 ± 0.07

Query: Let us now turn to COC1=CC=C2[C@H]3Cc4ccc(OC)c5c4[C@@]2(CCN3C)[C@H]1O5
Reply: 2.30 ± 0.14

Query: Let us now turn to COc1ccc(Cc2nccc3cc(OC)c(OC)cc23)cc1OC
Reply: 1.98 ± 0.05

Query: Let us now turn to COc1ccc2c3c1O[C@H]1[C@@H](O)C=C[C@H]4[C@@H](C2)N(C)CC[C@@]341
Reply: 1.45 ± 0.13
